Hey, just so you know, these numbers are from ChEMBL document CHEMBL5291721.

Molecular target: Adenosine receptor A3 (Homo sapiens, UniProt P0DMS8); also: assay procedure not described here
Sequence (P0DMS8 whole entry): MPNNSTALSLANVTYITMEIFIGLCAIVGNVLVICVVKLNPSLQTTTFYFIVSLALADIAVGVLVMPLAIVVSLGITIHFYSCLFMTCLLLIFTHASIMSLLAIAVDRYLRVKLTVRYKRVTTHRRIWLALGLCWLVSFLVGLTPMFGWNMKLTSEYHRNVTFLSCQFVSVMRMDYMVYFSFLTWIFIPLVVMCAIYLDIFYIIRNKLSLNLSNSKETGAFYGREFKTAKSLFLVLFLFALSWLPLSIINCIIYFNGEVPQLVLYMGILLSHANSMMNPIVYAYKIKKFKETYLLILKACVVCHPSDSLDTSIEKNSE
Readout Kind: AC50

Quote AC50 reported for Cc1onc(-c2ccccc2)c1-c1ccc(S(N)(=O)=O)cc1 [VALDECOXIB] please.
> 30 µM

Quote AC50 reported for COc1cc2c(cc1OC)C(CCc1ccc(Cl)cc1)N(C)CC2 (centres undefined) [METHOPHOLINE] please.
> 30 µM

Quote AC50 reported for C=C[C@@]1(C)CC(=O)[C@]2(O)[C@@]3(C)[C@@H](O)CCC(C)(C)[C@@H]3[C@H](O)[C@H](OC(C)=O)[C@@]2(C)O1 [COLFORSIN] please.
> 30 µM

Quote AC50 reported for CCC(COC(=O)c1cc(OC)c(OC)c(OC)c1)(c1ccccc1)N(C)C (centres undefined) [TRIMEBUTINE] please.
30 µM
